Recorded IC50 for blocking of Ba/F3 cell proliferation, one value per entry.
- MEASURED_ON: T1, "Non-linked" human IL-23 (human p40 coexpressed in 293T cells with human p19:FLAG-tag peptide) (human, UniProt P29460 23-328)
- T1 sequence 1: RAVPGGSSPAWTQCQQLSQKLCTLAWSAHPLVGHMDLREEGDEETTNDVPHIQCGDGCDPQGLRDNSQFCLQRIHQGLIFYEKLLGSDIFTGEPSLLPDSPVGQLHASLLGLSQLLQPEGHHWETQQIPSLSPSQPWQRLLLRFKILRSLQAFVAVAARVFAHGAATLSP
- T1 sequence 2: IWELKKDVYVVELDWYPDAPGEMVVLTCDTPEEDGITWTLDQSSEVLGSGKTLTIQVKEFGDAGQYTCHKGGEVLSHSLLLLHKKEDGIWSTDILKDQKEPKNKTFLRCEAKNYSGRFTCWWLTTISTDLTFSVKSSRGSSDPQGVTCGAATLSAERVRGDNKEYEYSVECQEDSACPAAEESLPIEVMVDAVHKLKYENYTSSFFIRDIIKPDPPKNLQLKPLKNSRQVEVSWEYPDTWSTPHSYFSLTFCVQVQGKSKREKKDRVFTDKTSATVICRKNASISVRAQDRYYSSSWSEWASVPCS
- ASSAY_NAME: cell-based or functional assay

The following binders have reported results that may help.
{"BINDER": "mouse anti-human IL-23p19 antibody 3D7 (antibody, V domains shown) VH: QVQLQQSGPELVKPGASVKISCKASGYSFTSYYIHWVKQRPGQGLEWIGWIFPGSGNTKYNEKFKGKATLTADTSSTTAYMQLSSLTSEASAVYFCAREGLHYFGLYAMDYWGHGTSVTVSS VL: DIQMTQTTSSLSASLGDRVTISCSASQGISNYLNWFQQKPDGTVKLLIYYTSSLHSGVPSRFSGSGSGTDYSLTISNLEPEDIATYYCQQYSKLPYTFGGGTKLEIKR", "VALUE_REPORTED": "37 nM"}
{"BINDER": "humanized anti-human IL-23p19 antibody hum7G10 (antibody, human IgG1, kappa, V domains shown) VH: QVQLVQSGAEVKKPGASVKVSCKASGYTFTSNVMHWVRQAPGQGLEWMGYINPYNDGTKYNEKFKGRVTMTTDTSTSTAYMELRSLRSDDTAVYYCARNWDVAYWGQGTLVTVSS VL: DIQMTQSPSSLSASVGDRVTITCRASQSISDYLHWYQQKPGKAPKLLIYYASQSISGVPSRFSGSGSGTDFTLTISSLQPEDFATYYCQNGHSFPFTFGQGTKVEIKR", "VALUE_REPORTED": "10000 nM"}

Let's switch to this binder now.
Identify measured IC50 for blocking of Ba/F3 cell proliferation associated with mouse anti-human IL-23p19 antibody 7G10 (antibody, V domains shown) VH: EVQLQQSGPELVKPGASVKMSCKASGYTFTSNVMHWVKQKPGQGLEWIGYINPYNDGTKYNEKFKGKATLTSDKSSSTAYMELSSLTSEDSAVYYCARNWDVAYWGQGTLVTVSA VL: DIVMTQSPATLSVTPGDRVSLSCRASQSISDYLHWYRQKSHESPRLLIKYASQSISGIPSRFSGSGSGSDFTLSINSVEPEDVGVYYCQNGHSFPFTFGSGTKLEIKR
3000 nM
